Entries and their measured pIC50 follow.
Molecular target: UniProt:Q12809
Sequence (Q12809 whole entry): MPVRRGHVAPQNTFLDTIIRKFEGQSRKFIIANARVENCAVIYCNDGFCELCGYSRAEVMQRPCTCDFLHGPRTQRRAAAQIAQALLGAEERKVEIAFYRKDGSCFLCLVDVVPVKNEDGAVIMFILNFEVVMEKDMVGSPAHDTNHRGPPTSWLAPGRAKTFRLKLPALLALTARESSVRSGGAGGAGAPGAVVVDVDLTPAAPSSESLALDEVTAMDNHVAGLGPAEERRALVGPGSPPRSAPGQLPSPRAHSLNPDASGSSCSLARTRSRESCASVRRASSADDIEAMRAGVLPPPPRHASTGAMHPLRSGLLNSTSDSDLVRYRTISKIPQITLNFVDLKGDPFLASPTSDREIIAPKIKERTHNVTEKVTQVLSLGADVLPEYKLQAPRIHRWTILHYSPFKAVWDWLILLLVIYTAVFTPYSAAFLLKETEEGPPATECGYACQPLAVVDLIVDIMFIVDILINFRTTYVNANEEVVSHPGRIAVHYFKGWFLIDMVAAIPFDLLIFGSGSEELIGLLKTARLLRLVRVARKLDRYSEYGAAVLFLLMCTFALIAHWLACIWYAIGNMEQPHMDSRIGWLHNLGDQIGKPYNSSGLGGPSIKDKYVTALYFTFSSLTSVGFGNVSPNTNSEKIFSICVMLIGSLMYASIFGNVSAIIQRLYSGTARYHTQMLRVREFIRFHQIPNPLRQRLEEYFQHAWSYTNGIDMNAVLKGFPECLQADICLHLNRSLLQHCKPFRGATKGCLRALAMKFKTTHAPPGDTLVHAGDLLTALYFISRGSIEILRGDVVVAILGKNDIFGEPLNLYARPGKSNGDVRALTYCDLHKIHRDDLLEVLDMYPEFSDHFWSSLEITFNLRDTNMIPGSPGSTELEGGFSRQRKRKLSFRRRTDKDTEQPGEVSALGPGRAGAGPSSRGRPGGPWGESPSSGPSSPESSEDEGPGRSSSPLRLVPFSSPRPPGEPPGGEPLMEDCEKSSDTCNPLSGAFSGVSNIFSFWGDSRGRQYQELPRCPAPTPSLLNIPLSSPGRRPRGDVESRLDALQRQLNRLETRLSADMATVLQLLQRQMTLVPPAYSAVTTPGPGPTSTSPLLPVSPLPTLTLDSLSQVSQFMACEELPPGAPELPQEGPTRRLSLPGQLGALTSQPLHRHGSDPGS
Test: Displacement of [3H]-astemizole from human ERG channel expressed in HEK293 cells by radioligand competition binding assay
pIC50: −log10 of the molar value.

query: What value of pIC50 has been reported for the following molecule? `C[C@@H]1c2nnc(-c3ccccn3)n2CCN1C(=O)c1cccc(Cl)c1Cl`
result: < 5.00

query: What value of pIC50 has been reported for the following molecule? `COc1ccnc(-c2nnc3n2C[C@H](C)N(C(=O)c2cccc(Cl)c2Cl)C3)c1`
result: < 5.00

* * *

Assay: Drug level in brain of Sprague-Dawley rat at 30 mg/kg, po after 2 hrs
Assay type: ADME, organism-based
Settings: read-out: Drug uptake
Entries and their measured concentration at 2 h follow.
State the answer as a number, implicitly in ng/mL.

Example entries and their recorded answers appear below.
sample.smiles: C[C@H]1Cn2c(nnc2-c2ccc(F)cc2)CN1C(=O)c1cccc(C(F)(F)F)c1Cl
display.unit: ng/mL
numeric.value: 12600

sample.smiles: C[C@H]1Cn2c(nnc2-c2ccc(F)cc2)CN1C(=O)c1cccc(Cl)c1Cl
display.unit: ng/mL
numeric.value: 142

Note: attention shifts to another entry.
query: What value of concentration at 2 h has been reported for the following molecule? `C[C@@H]1c2nnc(-c3ccccn3)n2CCN1C(=O)c1cccc(Cl)c1Cl`
result: 2500

* * *

Assay: Protein binding in rat plasma
Assay type: ADME, cell-free
Details: read-out: PPB (converted)
Kind request: treat 0.08 as inclusive, so fraction unbound at 0.08 or higher is MET, anything lower is NOT MET.

Solved cases (3 shown):
sample.smiles: C[C@H]1Cn2c(nnc2-c2cc(F)ccn2)CN1C(=O)c1cccc(Cl)c1Cl
class.name: MET

sample.smiles: C[C@H]1Cn2c(nnc2-c2cnccn2)CN1C(=O)c1cccc(C(F)(F)F)c1Cl
class.name: MET

sample.smiles: C[C@H]1Cn2c(nnc2-c2ccccn2)CN1C(=O)c1cccc(Cl)c1Cl
class.name: MET

query: State whether the measured fraction unbound reaches 0.08, counting equality as reaching it, for `COc1ccnc(-c2nnc3n2C[C@H](C)N(C(=O)c2cccc(Cl)c2Cl)C3)c1`
result: NOT MET

query: State whether the measured fraction unbound reaches 0.08, counting equality as reaching it, for `C[C@@H]1c2nnc(-c3ccccn3)n2CCN1C(=O)c1cccc(Cl)c1Cl`
result: NOT MET

* * *

Entries and their measured fraction unbound follow.
Experiment: Protein binding in human plasma
Assay type: ADME, cell-free
Details: read-out: PPB (converted)
I only need the number, thanks.

Example entries and their recorded answers appear below.
sample.smiles: C[C@H]1Cn2c(nnc2-c2ccccn2)CN1C(=O)c1cccc(Cl)c1Cl
measurement.label: fraction unbound
numeric.value: 0.51
//
sample.smiles: C[C@H]1Cn2c(nnc2-c2cc(F)ccn2)CN1C(=O)c1cccc(Cl)c1Cl
measurement.label: fraction unbound
numeric.value: 0.254
//
sample.smiles: C[C@@H]1c2nnc(-c3ccccn3)n2CCN1C(=O)c1cccc(Cl)c1Cl
measurement.label: fraction unbound
numeric.value: 0.175
//
sample.smiles: COc1ccnc(-c2nnc3n2C[C@H](C)N(C(=O)c2cccc(Cl)c2Cl)C3)c1
measurement.label: fraction unbound
numeric.value: 0.174
//
sample.smiles: C[C@H]1Cn2c(nnc2-c2ccc(F)cc2)CN1C(=O)c1cccc(C(F)(F)F)c1Cl
measurement.label: fraction unbound
numeric.value: 0.131

query: What value of fraction unbound has been reported for the following compound? `C[C@H]1Cn2c(nnc2-c2ccc(F)cc2)CN1C(=O)c1cccc(Cl)c1Cl`
result: 0.115

query: What value of fraction unbound has been reported for the following compound? `C[C@H]1Cn2c(nnc2-c2cnccn2)CN1C(=O)c1cccc(C(F)(F)F)c1Cl`
result: 0.302
